- study_target: recombinant human MAO-B (Homo sapiens)
- Sequence (P27338 whole entry): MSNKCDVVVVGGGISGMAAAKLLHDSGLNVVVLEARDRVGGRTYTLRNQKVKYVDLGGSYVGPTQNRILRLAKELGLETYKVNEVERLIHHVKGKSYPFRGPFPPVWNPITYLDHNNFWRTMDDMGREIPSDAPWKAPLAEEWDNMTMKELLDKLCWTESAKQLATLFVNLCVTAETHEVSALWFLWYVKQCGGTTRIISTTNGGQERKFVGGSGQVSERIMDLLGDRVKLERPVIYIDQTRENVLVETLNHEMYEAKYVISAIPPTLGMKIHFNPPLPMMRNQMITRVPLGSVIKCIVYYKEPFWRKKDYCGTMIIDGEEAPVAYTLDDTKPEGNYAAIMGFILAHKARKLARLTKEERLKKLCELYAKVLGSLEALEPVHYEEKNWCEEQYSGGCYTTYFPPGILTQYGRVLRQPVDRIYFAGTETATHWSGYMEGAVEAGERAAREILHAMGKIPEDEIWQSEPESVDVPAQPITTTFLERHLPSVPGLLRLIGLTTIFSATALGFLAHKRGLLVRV
- assay_method_text: Inhibitory activity on recombinant human MAO-B (kynuramine, fluorescence)
- cond: recombinant human MAO-B, kynuramine substrate
- Experimental: The inhibitory activity assays of the isolated compound with recombinant human MAO-A and MAO-B (Sigma-Aldrich, St. Louis, MO, USA) were carried out with some modification as described recently by. […] The activity was determined by serial dilution of each concentration of the compounds. […] The fluorescence of 4-hydroxyquinoline (Sigma-Aldrich, St. Louis, MO, USA), a by-product of this reaction, was measured with the excitation wavelength at 310 nm and the emission wavelength at 400 nm. […]
measurement_name: IC50 (µM)

molecule="COc1c(O)cc2oc3cc(O)c(CC=C(C)C)c(O)c3c(=O)c2c1C/C=C(\\C)CCC=C(C)C [Compound 5, cowanin]" censor_symbol== measurement=16.3
molecule="COc1c(O)cc2oc3cc4c(c(O)c3c(=O)c2c1C/C=C(\\C)CCC=C(C)C)C=CC(C)(C)O4 [Compound 6, fuscaxanthone A]" censor_symbol== measurement=0.07
molecule="COc1cc2oc3cc(O)c(CC=C(C)C)c(O)c3c(=O)c2c(CC=C(C)C)c1OC [Compound 4, cowaxanthone B]" censor_symbol== measurement=15.6
molecule="COc1cc2oc3c(OC)c(O)ccc3c(=O)c2c(O)c1CC=C(C)C [Compound 1, cowagarcinone C]" censor_symbol== measurement=18
molecule="COc1c(O)cc2oc3cc4occc4c(O)c3c(=O)c2c1C/C=C(\\C)CCC=C(C)C [Compound 8, xanthochymusxanthone A]" censor_symbol=> measurement=400
molecule="COc1cc2c(=O)c3c(O)c(C/C=C(\\C)CCC=C(C)C)c(O)cc3oc2cc1O [Compound 2, cowaxanthone]" censor_symbol== measurement=239
molecule="COc1c(O)cc2oc3cc(O)c(CC=C(C)C)c(O)c3c(=O)c2c1CC=C(C)C [Compound 3, α-mangostin]" censor_symbol== measurement=40.1
molecule="COc1c(O)c(CC=C(C)C)c2oc3cc(O)c(CC=C(C)C)c(O)c3c(=O)c2c1CC=C(C)C [Compound 9, 7-O-methylgarcinone E]" censor_symbol== measurement=0.4
molecule="COc1c(O)c(CC=C(C)C)c2oc3cc(O)c(CC=C(C)C)c(O)c3c(=O)c2c1C/C=C(\\C)CCC=C(C)C [Compound 10, cowagarcinone A]" censor_symbol=> measurement=400
